System: Trypanosoma cruzi
Experiment: Antitrypanosomal activity against Trypanosoma cruzi Tulahuen C4
Format: functional, organism-based
pIC50: −log10 of the molar value.
Provide the recorded pIC50 for the entries that follow.

CC[C@H](C)[C@H]1NC(=O)[C@H]2N=C(O[C@@H]2C)[C@H](C(C)C)NC(=O)[C@H]2N=C(O[C@@H]2C)[C@@H](C)NC(=O)c2csc1n2	< 3.82

Here is the next item to consider.
Recorded pIC50 for CC[C@H](C)[C@H]1NC(=O)[C@H]2N=C(O[C@@H]2C)[C@H](C(C)C)NC(=O)[C@H]([C@@H](C)O)NC(=O)[C@@H](C)NC(=O)c2csc1n2 , please?
< 3.82

* * *

System: Trypanosoma brucei rhodesiense
Experiment: Antitrypanosomal activity against Trypanosoma brucei rhodesiense STIB 900 after 72 hrs by Alamar blue assay
Type: functional, organism-based
Details: STIB 900, 72 h
Endpoint Label: pIC50
One number for each entry, as −log10 of the molar value.

CC[C@H](C)[C@H]1NC(=O)[C@H]2N=C(O[C@@H]2C)[C@H](C(C)C)NC(=O)[C@H]([C@@H](C)O)NC(=O)[C@@H](C)NC(=O)c2csc1n2	4.29

Here is the next item to consider.
Recorded pIC50 for CC[C@H](C)[C@H]1NC(=O)[C@H]2N=C(O[C@@H]2C)[C@H](C(C)C)NC(=O)[C@H]2N=C(O[C@@H]2C)[C@@H](C)NC(=O)c2csc1n2 , please?
4.23

Numbers sourced from ChEMBL document CHEMBL3120140.
